Data provenance is patent US11225505B2.

Test system: Acinetobacter baumannii FADDI-AB030
experimental_protocol: microbe, parasite or virus in culture
Type: cell-based
measurement_context: FADDI-AB030
Where a SMILES comes first, the peptide text is derived from it. Bridges are numbered along the chain shown (N, C = ends). [ ]: non-standard residue; d: D form. The star is where a group is joined. Benzothiazole(5-carbonyl) = O=C(c1ccc2scnc2c1)*; X29 = O=C(c1cc(Cl)ccn1)*; Dab = NCC[C@H](N)C(=O)O; X3 = O=C(c1cncc(Cl)c1)*; Abu = CC[C@H](N)C(=O)O; Dap = NC[C@H](N)C(=O)O
Reported Minimum inhibitory concentration values are given for each entry in this list.
The reply should be a number in µg/mL, with the unit left off.

Examples with their reported Minimum inhibitory concentration follow.
{"columns": ["compound", "Minimum inhibitory concentration (µg/mL)"],
 "data": [
  ["CC(C)C[C@H]1NC(=O)[C@H](CCN)NC(=O)[C@@H](NC(=O)[C@H](CN)NC(=O)[C@@H](NC(=O)[C@H](CCN)NC(=O)c2cc(Cl)ccn2)[C@@H](C)O)CCNC(=O)[C@H]([C@@H](C)O)NC(=O)[C@H](CCN)NC(=O)[C@H](CCN)NC(=O)[C@H]([C@@H](C)O)NC1=O [Compound 98] (X29-[Dab]T[Dap][Dab][Dab][dL]T[Dab][Dab]T; lactam 4-C)", 1],
  ["CC[C@@H]1NC(=O)[C@@H](CC(C)C)NC(=O)[C@H](CCN)NC(=O)[C@@H](NC(=O)[C@H](CN)NC(=O)[C@@H](NC(=O)[C@H](CCN)NC(=O)c2cncc(Cl)c2)[C@@H](C)O)CCNC(=O)[C@H]([C@@H](C)O)NC(=O)[C@H](CCN)NC(=O)[C@H](CCN)NC1=O [Compound 6] (X3-[Dab]T[Dap][Dab][Dab][dL][Abu][Dab][Dab]T; lactam 4-C)", 1]
]}

Query compound follows.
-- ask Reported Minimum inhibitory concentration, compound CC[C@@H]1NC(=O)[C@@H](CC(C)C)NC(=O)[C@H](CCN)NC(=O)[C@@H](NC(=O)[C@H](CN)NC(=O)[C@@H](NC(=O)[C@H](CCN)NC(=O)c2ccc3scnc3c2)[C@@H](C)O)CCNC(=O)[C@H]([C@@H](C)O)NC(=O)[C@H](CCN)NC(=O)[C@H](CCN)NC1=O [Compound 53] ({Benzothiazole(5-carbonyl)}-[Dab]T[Dap][Dab][Dab][dL][Abu][Dab][Dab]T; lactam 4-C; N-terminus assumed) : ____
-- reply 1

----------
System: Pseudomonas aeruginosa FADDI-PA01
Assay type: cell-based
measurement_context: FADDI-
Where a SMILES comes first, the peptide text is derived from it. Bridges are numbered along the chain shown (N, C = ends). [ ]: non-standard residue; d: D form. The star is where a group is joined. X49 = O=C(c1cnc(C(F)(F)F)nc1)*; Dab = NCC[C@H](N)C(=O)O; Abu = CC[C@H](N)C(=O)O; Dap = NC[C@H](N)C(=O)O; X53 = O=C(c1ccncc1Cl)*
Reported Minimum inhibitory concentration values are given for each entry in this list.

{"columns": ["compound", "Minimum inhibitory concentration"],
 "data": [
  ["CC[C@@H]1NC(=O)[C@@H](CC(C)C)NC(=O)[C@H](CCN)NC(=O)[C@@H](NC(=O)[C@H](CN)NC(=O)[C@@H](NC(=O)[C@H](CCN)NC(=O)c2cnc(C(F)(F)F)nc2)[C@@H](C)O)CCNC(=O)[C@H]([C@@H](C)O)NC(=O)[C@H](CCN)NC(=O)[C@H](CCN)NC1=O [Compound 45] (X49-[Dab]T[Dap][Dab][Dab][dL][Abu][Dab][Dab]T; lactam 4-C)", "<0.125 µg/mL"]
]}

-- ask Reported Minimum inhibitory concentration, compound CC[C@@H]1NC(=O)[C@@H](CC(C)C)NC(=O)[C@H](CCN)NC(=O)[C@@H](NC(=O)[C@H](CN)NC(=O)[C@@H](NC(=O)[C@H](CCN)NC(=O)c2ccncc2Cl)[C@@H](C)O)CCNC(=O)[C@H]([C@@H](C)O)NC(=O)[C@H](CCN)NC(=O)[C@H](CCN)NC1=O [Compound 34] (X53-[Dab]T[Dap][Dab][Dab][dL][Abu][Dab][Dab]T; lactam 4-C) : ____
-- reply 0.25 µg/mL

----------
Tested on: Pseudomonas aeruginosa FADDI-PA01
Assay type: cell-based
measurement_context: FADDI-
Experimental: MICs of the lipopeptides (trifluoroacetic acid salt, TFA) were determined by broth microdilution in cation-adjusted Mueller-Hinton broth (CAMHB) (Oxoid Australia, Thebarton, SA, Australia) according to the Clinical and Laboratory Standards Institute protocol (Clinical and Laboratory Standards Institute, Performance standards for antimicrobial susceptibility testing; twentyforth informational supplement M100-S24. Wayne, Pa., 2014). Polymyxin B sulphate was employed as the control. […]
Where a SMILES comes first, the peptide text is derived from it. Bridges are numbered along the chain shown (N, C = ends). [ ]: non-standard residue; d: D form. The star is where a group is joined. X35 = O=C(c1cc(-c2ccc(Cl)cc2)on1)*; X11 = Cn1nc(C(=O)*)c2ccccc21; X23 = O=C(c1cc2ccccc2[nH]1)*; X46 = O=C(c1cc(Br)nc(Br)c1)*; Dab = NCC[C@H](N)C(=O)O; X61 = O=C(c1ccc(Br)s1)*; Abu = CC[C@H](N)C(=O)O; Dap = NC[C@H](N)C(=O)O; X31 = O=C(c1ncccc1Cl)*
Reported Minimum inhibitory concentration values are given for each entry in this list.

Examples with their reported Minimum inhibitory concentration follow.
{"columns": ["molecule", "target_or_system", "Minimum inhibitory concentration"],
 "data": [
  ["CC[C@@H]1NC(=O)[C@@H](CC(C)C)NC(=O)[C@H](CCN)NC(=O)[C@@H](NC(=O)[C@H](CN)NC(=O)[C@@H](NC(=O)[C@H](CCN)NC(=O)c2ccc(Br)s2)[C@@H](C)O)CCNC(=O)[C@H]([C@@H](C)O)NC(=O)[C@H](CCN)NC(=O)[C@H](CCN)NC1=O [Compound 78] (X61-[Dab]T[Dap][Dab][Dab][dL][Abu][Dab][Dab]T; lactam 4-C)", "Pseudomonas aeruginosa FADDI-PA01", "<0.125 µg/mL"],
  ["CC[C@@H]1NC(=O)[C@@H](CC(C)C)NC(=O)[C@H](CCN)NC(=O)[C@@H](NC(=O)[C@H](CN)NC(=O)[C@@H](NC(=O)[C@H](CCN)NC(=O)c2cc(-c3ccc(Cl)cc3)on2)[C@@H](C)O)CCNC(=O)[C@H]([C@@H](C)O)NC(=O)[C@H](CCN)NC(=O)[C@H](CCN)NC1=O [Compound 94] (X35-[Dab]T[Dap][Dab][Dab][dL][Abu][Dab][Dab]T; lactam 4-C)", "Pseudomonas aeruginosa FADDI-PA01", "0.5 µg/mL"],
  ["CC[C@@H]1NC(=O)[C@@H](CC(C)C)NC(=O)[C@H](CCN)NC(=O)[C@@H](NC(=O)[C@H](CN)NC(=O)[C@@H](NC(=O)[C@H](CCN)NC(=O)c2nn(C)c3ccccc23)[C@@H](C)O)CCNC(=O)[C@H]([C@@H](C)O)NC(=O)[C@H](CCN)NC(=O)[C@H](CCN)NC1=O [Compound 51] (X11-[Dab]T[Dap][Dab][Dab][dL][Abu][Dab][Dab]T; lactam 4-C)", "Pseudomonas aeruginosa FADDI-PA01", "0.25 µg/mL"],
  ["CC[C@@H]1NC(=O)[C@@H](CC(C)C)NC(=O)[C@H](CCN)NC(=O)[C@@H](NC(=O)[C@H](CN)NC(=O)[C@@H](NC(=O)[C@H](CCN)NC(=O)c2cc3ccccc3[nH]2)[C@@H](C)O)CCNC(=O)[C@H]([C@@H](C)O)NC(=O)[C@H](CCN)NC(=O)[C@H](CCN)NC1=O [Compound 56] (X23-[Dab]T[Dap][Dab][Dab][dL][Abu][Dab][Dab]T; lactam 4-C)", "Pseudomonas aeruginosa FADDI-PA01", "<0.125 µg/mL"],
  ["CC[C@@H]1NC(=O)[C@@H](CC(C)C)NC(=O)[C@H](CCN)NC(=O)[C@@H](NC(=O)[C@H](CN)NC(=O)[C@@H](NC(=O)[C@H](CCN)NC(=O)c2ncccc2Cl)[C@@H](C)O)CCNC(=O)[C@H]([C@@H](C)O)NC(=O)[C@H](CCN)NC(=O)[C@H](CCN)NC1=O [Compound 36] (X31-[Dab]T[Dap][Dab][Dab][dL][Abu][Dab][Dab]T; lactam 4-C)", "Pseudomonas aeruginosa FADDI-PA01", "0.5 µg/mL"]
]}

Query molecule follows.
-- ask Reported Minimum inhibitory concentration, molecule CC[C@@H]1NC(=O)[C@@H](CC(C)C)NC(=O)[C@H](CCN)NC(=O)[C@@H](NC(=O)[C@H](CN)NC(=O)[C@@H](NC(=O)[C@H](CCN)NC(=O)c2cc(Br)nc(Br)c2)[C@@H](C)O)CCNC(=O)[C@H]([C@@H](C)O)NC(=O)[C@H](CCN)NC(=O)[C@H](CCN)NC1=O [Compound 28] (X46-[Dab]T[Dap][Dab][Dab][dL][Abu][Dab][Dab]T; lactam 4-C) : ____
-- reply 1 µg/mL
